These entries and their values trace back to PubChem BioAssay (NCI).

test system: MDA-MB-468 breast; assay: NCI-60 one-dose screen, 48 h (100 = growth as untreated, 0 = no growth, -100 = all killed); conditions: 10 µM unless noted
This is part of a sample that, as a whole, favours compounds with a hit. Of some 83,000 tested, about 20% had one in any assay. Active and inactive are the calls of the source. The calls were made as follows: active = growth percent below 10; inactive = the rest.
Kindly supply the reported growth values for the records listed here.

Lab note: C1=C2CNCC3=Cc4ccc5ccccc5c4OC23Oc2c1ccc1ccccc21 gave growth of 50.4% (inactive)

Note to self: growth recorded for O=C(Nc1ncc(Cc2cc(Cl)ccc2Cl)s1)c1cccs1 was 18% (inactive)

Lookup result for Cc1ccc(N)cc1F ; measured growth: 100% (inactive)

Looking up O=S(=O)(NCCNc1nccc(-c2c(-c3ccccc3)nc3sccn23)n1)c1ccc(O)cc1 , I found its growth recorded as 19.9% (inactive)

C=C1CCC2C3(C)COC(c4ccccc4Br)OC3CCC2(C)C1C/C=C1/C(=O)OCC1OC(C)=O (centres undefined) has a reported growth of -34.3% (active)

The recorded growth for CC/C(Cc1ccccc1)=C(/c1ccc(O)cc1)c1ccc(OCCN2CCCC2)cc1 is -82.1% (active)

get_value(item= CN(C)c1ccc2cc(-c3ccccc3F)c(N)nc2c1 , readout=growth) returns 25.6% (inactive)

Entry under test: COc1ccc2c(c1)C1(C(=O)N2)C(C#N)=C(c2ccccc2)Nc2c1c(-c1ccccc1)nn2-c1ccccc1 (centres undefined) . Its growth was 76.5% (inactive)

The value of growth measured for the molecule NC(=O)c1ccc[n+](Cc2ccc(Cl)cc2Cl)c1 turned out to be 101% (inactive)

----------
test system: UO-31 renal; assay: NCI-60 one-dose screen, 48 h (100 = growth as untreated, 0 = no growth, -100 = all killed); conditions: 10 µM
This is part of a sample that, as a whole, favours compounds with a hit. Of some 83,000 tested, about 20% had one in any assay.
readout_label: growth (%)
The reply should be a number in %, with the unit left off.

COc1ccc(C(=O)COc2ccc(NC(=O)Nc3ccccc3)cc2)cc1 has a reported growth of 80

Record Nc1nnc(-c2c[nH]c3ncc(Br)cc23)c(-c2c[nH]c3ccc(Br)cc23)n1 , field growth: 32.6

Input C#C[C@]1(O)CC[C@H]2[C@@H]3CC=C4c5sc(Nc6ccc(N(C)C)cc6)nc5CC[C@]4(C)[C@H]3CC[C@@]21C . Output growth: -45

growth in this record for COc1cc(C2CC(c3ccc(Oc4ccc(Cl)cc4)cc3)=NN2c2nc(-c3ccc(Cl)cc3)c(C#N)c(N3CCOCC3)n2)cc(OC)c1OC (configuration not stated) : 79.2

For record Cn1cc(-c2nnc(N)nc2-c2c[nH]c3ccccc23)c2cc(Br)cnc21 the listed growth is 24.7

Lab book: growth of Cn1cc(-c2cc3nc(-c4c[nH]c5ccccc45)cc(N)n3n2)c2cc(Cl)ccc21 noted as -97.7

growth in this record for Cn1cc(-c2nnc(N)nc2-c2c[nH]c3ccc(F)cc23)c2cc(Br)cnc21 : 43.1

Recorded growth (compound Cn1cc(-c2nc(N)nnc2-c2c[nH]c3ccccc23)c2cc(Br)cnc21 ): 11.8

Entry CC1[C@H]2[C@H](C[C@H]3[C@@H]4CC=C5c6sc(Nc7cccc(Cl)n7)nc6CC[C@]5(C)[C@H]4CC[C@@]32C)O[C@]12CC[C@@H](C)CO2 (some centres not stated) — recorded growth = 85.4

Form: compound = Fc1ccc(-c2csc(Nc3cccc(Nc4nc(-c5ccc(F)cc5)cs4)c3)n2)cc1 ; growth = 31.3

Lab note: measured growth of COc1ccc(C2c3sc4ccc(C)cc4c3Oc3nc(N)nc(N)c32)cc1 (configuration not stated) was 60.5

Kindly note the recorded growth for O=C1S/C(=C\c2ccc([N+](=O)[O-])cc2)C(=O)N1CCN1CCCCC1 , which is 102
